Catalogue of Ki values
Protein target, amino acids: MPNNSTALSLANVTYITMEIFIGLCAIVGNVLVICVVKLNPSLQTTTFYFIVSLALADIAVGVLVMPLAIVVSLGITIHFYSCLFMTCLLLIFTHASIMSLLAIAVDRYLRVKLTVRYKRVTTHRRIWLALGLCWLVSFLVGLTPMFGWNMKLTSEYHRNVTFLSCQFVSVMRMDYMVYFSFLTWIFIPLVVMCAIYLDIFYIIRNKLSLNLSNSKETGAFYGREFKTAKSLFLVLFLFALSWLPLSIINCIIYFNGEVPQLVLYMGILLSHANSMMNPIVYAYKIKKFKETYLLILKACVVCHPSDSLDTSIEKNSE
REPORTED_ENDPOINT: Ki (µM)

smi=CCCn1c(=O)c2[nH]c(-c3ccc(OCC(=O)Nc4ccc(Br)cc4)cc3)nc2n(CCC)c1=O u=µM measured_result=2.34
smi=CCCn1c(=O)c2[nH]c(-c3ccc(OCC(=O)Nc4ccc(-c5ccccc5)cc4)cc3)cc2n(C)c1=O u=µM measured_result=12.3
smi=COc1cc(OCC(=O)Nc2ccc(Br)cc2)ccc1-c1cc2c([nH]1)c(=O)n(C)c(=O)n2C u=µM measured_result=10.7
smi=CCCn1c(=O)c2[nH]c(-c3ccc(OCC(=O)NCc4ccccc4)cc3)nc2n(CCC)c1=O u=µM measured_result=0.141
